System: NCI-H460
experiment-summary: NCI tumour cell line growth inhibition, 48 h
The source made the active and inactive calls. Cut-off read from the data, not from the text of the source: active = GI50 up to about 1.1 µM and inactive = higher. Numbered stars: 1 amine (or outer) side, 2 acyl side, 3 side chain; on linkers, the order of the positions; unused ones are H or OH. Square brackets hold non-standard residues; d marks the D form. Peptide text beside a SMILES is read from it. * marks the point of attachment. X30 = CC(=O)N(C)SCC(N[*:1])C(=O)[*:2]; Cbz = O=C(OCc1ccccc1)*; Bn = c1ccc(C*)cc1
test-readout: GI50

Ask: Provide GI50, system NCI-H460, entry `O=C(N/N=C/c1ccccc1)c1c(-c2cccnc2)cnc2ccccc12`
Result: 61.1 µM (inactive)

Ask: Enter measured GI50, system NCI-H460, for the molecule shown: `O=c1oc2ccccc2cc1-c1cn2c(n1)sc1ccccc12`
Result: > 100 µM (inactive)

Ask: Quote NCI-H460 GI50 for entry `C=Cc1c(-c2ccccc2)cnc2[nH]c3ccccc3c12` .
Result: > 50 µM (inactive)

Ask: Param request: GI50 | system NCI-H460 | item O=NN(CC1(O)OCC(O)C(O)C1O)C(Cc1c[nH]c2ccccc12)C(=O)O (configuration not stated)
Result: > 100 µM (inactive)

Ask: Enter measured GI50, system NCI-H460, for the molecule shown: COC(=O)C(C(=O)C(=O)Nc1ccc(C(F)(F)F)cc1[N+](=O)[O-])c1csc(-n2nc(-c3ccccc3)cc2-c2ccccc2)n1 (configuration not stated)
Result: > 100 µM (inactive)

Ask: Identify measured GI50 obtained with NCI-H460 for `CCOC(=O)C(Cc1c2ccccc2cc2ccccc12)(NC(C)=O)C(=O)OCC` .
Result: > 100 µM (inactive)

Ask: Specify GI50 for CC(=O)N(C)SCC(NC(=O)C(Cc1ccccc1)NC(=O)OCc1ccccc1)C(=O)NC(Cc1ccccc1)C(=O)NC(Cc1c[nH]c2ccccc12)C(=O)NC(CCCCNC(=O)OCc1ccccc1)C(=O)NC(C(=O)NC(CSN(C)C(C)=O)C(=O)NC(C(N)=O)C(C)OCc1ccccc1)C(C)OCc1ccccc1 (configuration not stated) (Cbz-F[X30]FWK(Cbz)T(Bn)[X30]T(Bn)-NH2; configuration not given here) , system NCI-H460.
Result: > 100 µM (inactive)

Ask: Output reported GI50 of the molecule `Cc1nn2c(=O)c([N+](=O)[O-])c(/C=C/c3ccc(F)cc3)nc2s1` on NCI-H460.
Result: 8.34 µM (inactive)

Ask: Give measured GI50 for Cc1cccc(N2C(=O)C(=O)C(c3nc4ccccc4s3)/C(=N/NC(=S)NN)C2=O)c1C (configuration not stated) (NCI-H460).
Result: > 100 µM (inactive)

Ask: Please report the measured GI50 for `Cc1cc2c(c(C(=O)NCCC(=O)N[C@@H](C)C(=O)OCc3ccccc3)c1)Oc1c(cc(C)cc1C(=O)NCCC(=O)N[C@@H](C)C(=O)OCc1ccccc1)S2` tested on NCI-H460.
Result: > 100 µM (inactive)

Ask: Provide GI50, recorded with NCI-H460, of `Cn1cc(C=C(C#N)C#N)c(=O)n(C)c1=O`
Result: > 100 µM (inactive)

Ask: Look up and report GI50, with NCI-H460 as system, for Cc1ccc2c(c1)C1(C)OC(C=CC1=O)O2 (configuration not stated)
Result: 2.21 µM (inactive)

Ask: Report GI50 under test system NCI-H460 for COc1ccccc1NC(=O)C(=O)C(C(=O)c1ccccc1F)C1OC(=O)c2ccccc21 (configuration not stated) .
Result: 25.8 µM (inactive)

Ask: Name the value of GI50 reported for `CCCCCC/C(CC(=O)CCC(=O)NCCc1ccccc1)=N\Nc1ccc([N+](=O)[O-])cc1[N+](=O)[O-]` when tested on NCI-H460.
Result: > 100 µM (inactive)

Ask: Provide GI50, recorded with NCI-H460, of `CCCCCCCCCCCCCCCCCCNC(=S)NC=C1C(=O)c2ccccc2C1=O`
Result: 12.1 µM (inactive)

Ask: For NCI-H460, give GI50 of the listed molecule: `NC(=O)C(=O)n1ncc(Cl)c(Cl)c1=O`
Result: 74.8 µM (inactive)

Ask: Look up and report measured GI50 (NCI-H460) for the following molecule: COC(=O)C1=C(C)C(=O)[C@H]2C(C(=O)OC)CCCC[C@@H]12 (some centres not stated)
Result: > 100 µM (inactive)

Ask: Retrieve GI50 on NCI-H460; query `O=C(O)Cc1ccc(N2N=C(c3ccccc3)CC2=O)cc1`
Result: > 100 µM (inactive)

Ask: Please report GI50 with NCI-H460 for item C=CCC1(CC)C(=O)NC(=O)NC1=O [ETALLOBARBITAL] .
Result: > 100 µM (inactive)

Ask: Give GI50; test system NCI-H460; molecule `COc1ccc(/C=N/N=C(\N)NO)cc1O`
Result: 25.5 µM (inactive)

Ask: Would you please give the reported GI50 of CC(Oc1ccccc1Cl)C(=O)NN1C(=O)CC(=O)N(c2ccccc2)C1=S (configuration not stated) with NCI-H460?
Result: 44.2 µM (inactive)

Ask: Check NCI-H460 data and give GI50 for `CCOC(=O)/C(C#N)=N\Nc1ccc(-n2c(C)nc3ccc(Br)cc3c2=O)cc1` .
Result: 44.7 µM (inactive)

Ask: Look up NCI-H460 data: GI50 of CC(=O)N1CN2C(=O)CCC2c2ccccc21 (configuration not stated) , then report it.
Result: > 100 µM (inactive)

Ask: Please indicate recorded GI50 of S=C1Nc2ccccc2SC1c1ccccc1 (configuration not stated) measured with NCI-H460.
Result: > 100 µM (inactive)

Ask: Give reported GI50 for `CCCc1nnc2sc(COc3ccc(OCc4nn5c(CCC)nnc5s4)c(Cl)c3)nn12` (NCI-H460)
Result: 23.3 µM (inactive)

Ask: Report value only: GI50, NCI-H460, C#CC1(O)CCC2[C@@H]3CCc4cc(Oc5nc(F)nc(-c6c(C)c(C(=O)OCC)n7ccccc67)n5)ccc4C3CC[C@@]21C (some centres not stated)
Result: > 100 µM (inactive)

Ask: State measured GI50 of the molecule `O=C(NC12CC3CC(CC(F)(C3)C1)C2)c1ccccc1` with NCI-H460.
Result: > 100 µM (inactive)

Ask: Jot down GI50 (NCI-H460) of `COc1cccc(/C=C/c2cnc3ccccc3n2)c1OC` .
Result: 24.8 µM (inactive)

Ask: Fetch value of GI50 on NCI-H460 for CCCCCCCCCCCCCCCCCCOCC(CCP(=O)(CP(=O)(O)O)Oc1ccccc1)OCCCCCCCCCCCCCCCCCC (configuration not stated) .
Result: > 100 µM (inactive)

Ask: Under NCI-H460, report GI50 for `Cc1ncc([N+](=O)[O-])n1CCNC(=O)Cn1c([N+](=O)[O-])cnc1C`
Result: > 100 µM (inactive)

Ask: Enter recorded GI50 with NCI-H460 for `C=C(C)[C@@H]1C[C@H]2O[C@](O)(C(=C)CC(=O)/C=C(/C)C[C@@H]3OC(=O)[C@]24O[C@@H]34)[C@H]1O` here.
Result: > 100 µM (inactive)

Ask: Fill in: GI50 on NCI-H460, entry `O=S(=O)(c1ccc(I)cc1)N(c1ccccc1)S(=O)(=O)C(F)(F)C(F)(F)C(F)(F)C(F)(F)F`
Result: 31.9 µM (inactive)

Ask: Provide measured GI50 on NCI-H460 for `COC(=O)CCC(=O)CC(=O)C(=O)Nc1c(Cl)cc([N+](=O)[O-])cc1Cl` please.
Result: > 100 µM (inactive)

Ask: Enter measured GI50, system NCI-H460, for the molecule shown: `Cc1ccc(NC(=O)c2cc(S(=O)(=O)Nc3n[nH]c(=O)n3-c3ccccc3)c(S)cc2Cl)cc1`
Result: > 100 µM (inactive)

Ask: Give NCI-H460 GI50 for the following molecule: `COc1cc2c(c(OC)c1OC)-c1ccc(SC)cc1[C@H](OC(=O)c1ccccc1)CC2`
Result: 0.149 µM (active)

Ask: Provide GI50, recorded with NCI-H460, of NC1=NCC(c2ccccn2)C1c1ccc(F)cc1 (configuration not stated)
Result: > 100 µM (inactive)

Ask: Print NCI-H460 GI50 for CC1(Cl)CC2C(CC1Sc1nnnn1-c1ccccc1)C2(C)C (configuration not stated) .
Result: 89.9 µM (inactive)
